Test system: HL-60(TB) leukemia
Test: NCI tumour cell line growth inhibition, 48 h
If the reported TGI equals or exceeds 30 µM, assign 1. If not, assign 0.

[[record]]
compound = "Cc1cc2c(C)n(Cc3ccccc3Cl)nc2c(C(=O)O)c1C"
category = 1

[[record]]
compound = "CC(C)=CCC/C(C)=C/COc1c2ccoc2cc2oc(=O)ccc12"
category = 1

[[record]]
compound = "CC(=O)Oc1ccc2c(c1)CC[C@@H]1C2[C@@H](O[N+](=O)[O-])C[C@@]2(C)C1CC[C@@H]2O[N+](=O)[O-] (stereo not given in full)"
category = 1

[[record]]
compound = "CCN(CC)CCCNc1cc(OC)cc2nc3cc(Cl)ccc3nc12"
category = 0

[[record]]
compound = "Cc1cc(S(=O)(=O)Nc2nnc3cnc4ccccc4n23)c(S)cc1Cl"
category = 1

[[record]]
compound = "O=C(N/N=C\\c1ccc(N(CCCl)CCCl)cc1[N+](=O)[O-])c1cccnc1"
category = 1

[[record]]
compound = "O=C(CC1OC(O)C(Cl)=C1Cl)c1cccnc1 (stereo not given)"
category = 1

[[record]]
compound = "CNC(=O)c1c(NC(=O)c2ccc(C(C)(C)C)cc2)sc2c(CN(C)C)c(O)ccc12"
category = 0

[[record]]
compound = "CCOC(=O)Oc1cc2c(c(OC)c1OC)-c1ccc(OC)c(=O)cc1C(NC(C)=O)CC2 (stereo not given)"
category = 0

[[record]]
compound = "O=C(c1ccc(Cl)cc1)N(C(=S)N1CCN(c2ccccn2)CC1)C1CCCCC1"
category = 1

[[record]]
compound = "c1csc(-c2ccsc2-c2cccs2)c1"
category = 1

[[record]]
compound = "Cc1cccc(C2SCc3nc4ccccc4n32)c1 (stereo not given)"
category = 1

[[record]]
compound = "CC(=O)Nc1c(S(=O)(=O)c2ccccc2)c(C)c(C)n1Cc1ccccc1"
category = 1

[[record]]
compound = "CSc1ccn(C2CC(F)C(CO)O2)c(=O)n1 (stereo not given)"
category = 1

[[record]]
compound = "CC1=C(SCCC(=O)OC(C[Se]C2=C(C)C(=O)c3ccccc3C2=O)C(=O)NCCCCCC(=O)OCc2ccccc2)C(=O)c2ccccc2C1=O (stereo not given)"
category = 0

[[record]]
compound = "COc1cc(/C=C/C(=O)/C=C/c2ccc(-n3ccnc3C)cc2)ccc1O"
category = 1

[[record]]
compound = "COc1ncc(Nc2ncc([C@@H](C)N3CCN(S(C)(=O)=O)CC3)cc2-c2nc(C)nc(N)n2)cc1F"
category = 1

[[record]]
compound = "CCc1cccc(C)c1NC(=O)C(=O)CC(=O)c1ccc(Cl)s1"
category = 1

[[record]]
compound = "CCOC(=O)/C(=C/c1ccc(C(=O)OC)cc1)N(CC)CC"
category = 1

[[record]]
compound = "COc1ccc(C2C(C#N)=C(S)N(C3OC(COC(C)=O)C(OC(C)=O)C(OC(C)=O)C3OC(C)=O)C(c3ccccc3)=C2C(C)=O)cc1 (stereo not given)"
category = 1

